Data origin: patent US11337971B2

Molecular target: human D3R (Homo sapiens (Human))
Sequence (P35462 whole entry): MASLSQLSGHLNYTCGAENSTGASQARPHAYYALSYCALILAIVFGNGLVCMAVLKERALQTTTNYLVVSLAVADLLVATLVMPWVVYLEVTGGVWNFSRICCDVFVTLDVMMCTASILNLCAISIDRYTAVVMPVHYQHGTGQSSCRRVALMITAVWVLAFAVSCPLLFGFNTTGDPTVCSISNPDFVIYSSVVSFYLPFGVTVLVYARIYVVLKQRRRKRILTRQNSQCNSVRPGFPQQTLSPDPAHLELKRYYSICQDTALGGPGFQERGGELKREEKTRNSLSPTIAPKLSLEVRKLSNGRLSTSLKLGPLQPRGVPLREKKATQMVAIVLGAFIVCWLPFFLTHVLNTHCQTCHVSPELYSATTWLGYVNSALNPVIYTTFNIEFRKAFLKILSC
Assay: Radioligand competition binding, [3H]N-methylspiperone, HEK293 membranes expressing human D3R
Conditions: Table 1C; ratio of Ki values
Description: Binding at dopamine D2-like receptors was determined using previously described methods. […] Radioligand competition binding experiments were conducted using thawed membranes. […] Nonspecific binding was determined using 10 μM butaclamol (Sigma-Aldrich, St. Louis, Mo.) and total binding was determined with 30% DMSO vehicle. […] Reported Ki values were determined from least three independent experiments. […]
The reader will find reported D2/D3 values listed item by item below.
Form field (numeric): enter value without unit.

Reference set (5 entries):
QUERY: Entry CCc1cc(Cl)c(OC)c(N2CCN(CC(O)CCNC(=O)c3ccc4c(c3)OCO4)CC2)c1 (stereo not shown) [Compound 113a] : reported D2/D3 = ?
RESULT: 15

QUERY: For the compound shown here, CCc1cccc(N2CCN(C[C@H](F)CCNC(=O)c3cc4ccccc4[nH]3)CC2)c1Cl [(R)-C5a] , give the reported D2/D3.
RESULT: 215

QUERY: # get_value(readout='D2/D3', item= CCc1cc2c(cc1N1CCN(CC(O)CCNC(=O)c3cc4ccccc4o3)CC1)OCO2 (stereo not shown) [Compound 122] )
RESULT: 61

QUERY: I have this compound here, CCc1cc(Cl)c(OC)c(N2CCN(CC(F)CCNC(=O)c3cc4ccccc4o3)CC2)c1 (racemic) [Compound C4b] , and I need its recorded D2/D3.
RESULT: 108

QUERY: Field request: D2/D3 | item: CCc1cc(Cl)c(OC)c(N2CCN(CC(F)CCNC(=O)c3cc4ccccc4[nH]3)CC2)c1 (racemic) [Compound C4a]
RESULT: 746

Continuing:
QUERY: What does the record list as D2/D3 for CCc1cc(Cl)c(OC)c(N2CCN(C[C@H](F)CCNC(=O)c3cc4ccccc4[nH]3)CC2)c1 [(R)-C4a] ?
RESULT: 1646

QUERY: # input compound: CCc1cccc(N2CCN(CC(F)CCNC(=O)c3cc4ccccc4[nH]3)CC2)c1Cl (racemic) [Compound C5a] ; wanted: its D2/D3
RESULT: 327

====

Molecular target: human D4R (Homo sapiens (Human), UniProt P21917)
Sequence (P21917 whole entry): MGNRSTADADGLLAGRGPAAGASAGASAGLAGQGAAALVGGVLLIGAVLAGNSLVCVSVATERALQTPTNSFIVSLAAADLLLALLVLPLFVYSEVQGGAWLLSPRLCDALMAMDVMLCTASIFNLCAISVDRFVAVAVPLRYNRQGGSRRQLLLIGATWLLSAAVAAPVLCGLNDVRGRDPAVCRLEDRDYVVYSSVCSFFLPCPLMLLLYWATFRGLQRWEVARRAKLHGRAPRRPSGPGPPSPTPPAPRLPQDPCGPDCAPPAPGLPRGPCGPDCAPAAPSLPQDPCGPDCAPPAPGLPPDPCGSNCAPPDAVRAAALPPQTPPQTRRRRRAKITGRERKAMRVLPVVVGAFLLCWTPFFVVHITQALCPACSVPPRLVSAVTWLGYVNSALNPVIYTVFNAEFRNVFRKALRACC
Experiment: Radioligand competition binding, [3H]N-methylspiperone, HEK293 membranes expressing human D4R
Settings: Table 1A; ratio of Ki values
Decision: D4/D2 compared against 30; not below it gives criterion met, below it gives criterion not met.

Some solved entries appear below for comparison.
QUERY: Say whether "CCc1cccc(N2CCN(C/C=C/CNC(=O)c3nc(C)c[nH]3)CC2)c1Cl" shows D4/D2 of 30 or more.
RESULT: criterion met

QUERY: API: above_or_equal(metric=D4/D2, cutoff=30) for item CCc1cccc(N2CCN(CC(O)CCNC(=O)c3cn4ccccc4n3)CC2)c1Cl (centres unmarked)
RESULT: criterion met

QUERY: API: above_or_equal(metric=D4/D2, cutoff=30) for item "CCc1c[nH]c(C(=O)NCCCCN2CCN(c3cccc(CC)c3Cl)CC2)n1"
RESULT: criterion met

QUERY: Threshold query (D4/D2 >= 30) on "CCc1cc(Cl)c(OC)c(N2CCN(CCCCNC(=O)c3cc4ccccc4[nH]3)CC2)c1"
RESULT: criterion met

QUERY: Form field: D4/D2 at least 30? Entry: CCc1cccc(N2CCN(CC(O)CCNC(=O)c3nc(C)c[nH]3)CC2)c1Cl (centres unmarked)
RESULT: criterion not met

QUERY: Determine whether measured D4/D2 meets or exceeds 30 for "CCc1cccc(N2CCN(CCCCNC(=O)c3cc4ccccc4[nH]3)CC2)c1Cl"
RESULT: criterion met

More entries:
QUERY: Evaluate "CCc1cccc(N2CCN(CCCCNC(=O)c3cc4ccccc4o3)CC2)c1Cl" : D4/D2 at minimum 30?
RESULT: criterion met

QUERY: // inclusive: D4/D2 at least 30? input: "CCc1cccc(N2CCN(CCCCNC(=O)c3nc(C)c[nH]3)CC2)c1Cl"
RESULT: criterion met

QUERY: Given the entry CCc1cc(Cl)c(OC)c(N2CCN(CC(O)CCNC(=O)c3cc4ccccc4o3)CC2)c1 (centres unmarked) , answer whether its D4/D2 meets or surpasses 30.
RESULT: criterion not met

QUERY: Is D4/D2 at least 30? Consider "CCc1cc(Cl)c(OC)c(N2CCN(CCCCNC(=O)c3cc4ccccc4o3)CC2)c1"
RESULT: criterion not met

QUERY: Assess whether reported D4/D2 for CCc1cccc(N2CCN(CCC(O)CNC(=O)c3cc4ccccc4[nH]3)CC2)c1Cl (centres unmarked) sits at 30 or higher.
RESULT: criterion met

QUERY: Determine whether this molecule has D4/D2 no lower than 30: CCc1cccc(N2CCN(CC(O)CCNC(=O)c3cc4ccccc4o3)CC2)c1Cl (centres unmarked)
RESULT: criterion not met

QUERY: Entry "CCc1cccc(N2CCN(CCCCNC(=O)c3cn4ccccc4n3)CC2)c1Cl" : is its D4/D2 no less than 30?
RESULT: criterion met
